- assayed system: T1, huNotch2-EGF6-10 (human, UniProt Q04721 219-418)
- T1 construct: also called human Notch2 EGF6-10
- T1 sequence: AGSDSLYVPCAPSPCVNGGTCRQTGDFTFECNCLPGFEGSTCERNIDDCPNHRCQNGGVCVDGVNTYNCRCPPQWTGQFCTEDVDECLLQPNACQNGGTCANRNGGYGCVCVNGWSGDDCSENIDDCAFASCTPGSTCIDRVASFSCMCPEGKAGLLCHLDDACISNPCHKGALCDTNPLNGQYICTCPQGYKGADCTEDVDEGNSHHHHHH
- test name: SPR BIAcore, separate experiment, substantially as for Table 4
assay readout: kon (M⁻¹ s⁻¹)
Write the value in M⁻¹ s⁻¹ as a bare number.

binder	kon, M⁻¹ s⁻¹
rat.3107 (rat/human chimeric anti-Notch2 antibody 3107) (antibody, V domains shown) VH: QVQLQQSGAELAKSGSSVKISCKASGYTFSNYVIHWIKQTTGQAPEWTGYIIPGSGGTKFNEKFKGKATLTVDKSSTTAYMQLSSLTPVDTAVYYCARDGAGSFTYWGQGTLVTVSS VL: DVLMTQTPVSLPVSLGGQVSISCRSSQSLVHSDGNTYLHWFLQKPGQSPQLLIYRISNRFSGVPDRFSGSGSGTDFTLKISRVEPEDLGVYYCLQSTHFPDTFGGGTKVEIK	342000

Returns the measured kon for the input binder. Input: hu.3107.L7H13 (antibody, V domains shown, also called hu.Notch-3107.L7H13) VH: EVQLVQSGAEVKKPGASVKVSCKASGYTFSNYVIHWVRQAPGQGPEWTGYIIPGSGGTKFNEKFKGRATSTVDTSITTAYMELSRLRSDDTVVYYCARDGAGSFTYWGQGTLVTVSS VL: DIVMTQSPDSLAVSLGERATINCRSSQSLVHSDGNTYLHWYQQKPGQPPKLLIYRISNRFSGVPDRFSGSGSGTDFTLTISSLQAEDVAVYYCLQSTHFPDTFGGGTKVEIK
355000

Returns the measured kon for the input binder. Input: hu.3107.L6H13 (antibody, V domains shown, also called hu.Notch-3107.L6H13) VH: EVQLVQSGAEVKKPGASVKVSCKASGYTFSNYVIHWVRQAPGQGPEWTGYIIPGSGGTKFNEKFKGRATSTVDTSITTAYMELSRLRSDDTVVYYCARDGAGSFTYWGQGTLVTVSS VL: DVVMTQSPDSLAVSLGERATINCRSSQSLVHSDGNTYLHWFQQKPGQPPKLLIYRISNRFSGVPDRFSGSGSGTDFTLTISSLQAEDVAVYYCLQSTHFPDTFGGGTKVEIK
448000

Returns the measured kon for the input binder. Input: hu.3107.L6H14 (antibody, V domains shown, also called hu.Notch-3107.L6H14) VH: EVQLVQSGAEVKKPGESLKISCKGSGYTFSNYVIHWVRQMPGKGPEWTGYIIPGSGGTKFNEKFKGQATISVDKSSTTAYLQWSSLKASDTAMYYCARDGAGSFTYWGQGTLVTVSS VL: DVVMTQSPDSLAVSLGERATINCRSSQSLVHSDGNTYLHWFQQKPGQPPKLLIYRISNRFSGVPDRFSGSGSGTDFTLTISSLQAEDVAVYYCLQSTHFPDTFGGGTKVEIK
354000
